Reported ND50, inhibition of IL-1-induced IL-8 release from MRC-5 cells values for the following binders.
# target: T1, Interleukin-1 receptor type 1 (IL-1R1) on cells (human, UniProt P14778 18-569)
# T1 sequence (looked up): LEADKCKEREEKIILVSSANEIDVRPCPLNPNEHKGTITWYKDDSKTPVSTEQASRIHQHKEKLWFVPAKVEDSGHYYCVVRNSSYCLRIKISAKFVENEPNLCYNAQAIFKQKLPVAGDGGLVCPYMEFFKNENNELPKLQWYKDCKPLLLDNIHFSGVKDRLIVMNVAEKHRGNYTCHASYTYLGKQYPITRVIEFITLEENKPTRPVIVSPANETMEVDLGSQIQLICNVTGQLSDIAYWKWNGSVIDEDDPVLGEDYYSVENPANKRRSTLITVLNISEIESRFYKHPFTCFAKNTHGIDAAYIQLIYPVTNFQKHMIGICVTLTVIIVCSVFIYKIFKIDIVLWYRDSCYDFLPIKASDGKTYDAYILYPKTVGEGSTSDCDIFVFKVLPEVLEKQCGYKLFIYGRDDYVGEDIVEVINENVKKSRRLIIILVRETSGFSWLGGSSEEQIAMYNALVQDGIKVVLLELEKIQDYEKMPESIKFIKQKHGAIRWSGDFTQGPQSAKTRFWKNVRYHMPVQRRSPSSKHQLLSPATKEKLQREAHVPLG
# assay.comment: cell-based or functional assay

binder	measured
DOM4-122-6 (other) VL: DIQMTQSPSSLSASVGDRVTITCRASQWIGRELRWYQQKPGKAPMFLIYHASRLQSGVPSRFSGSGSGTDFTLTISSLQPEDFATYYCQQYHGWPLTFGQGTKVEIKR	~10 nM
DOM4-130-46 (other) VL: DIQMTQSPSSLSASVGDRVTITCRASQDIYLNLDWYQQKPGKAPKLLINFGSELQSGVPSRFSGSGSGTDFTLTISSLQPEDFATYYCQPSFYFPYTFGQGTKVEIRR	~1 nM

For the binder DOM4-130-3 (other) VL: DIQMTQSPSSLSASVGDRVTITCRASQDIYLNLDWYQQKPGKAPKLLIYGTSNLQSGVPSRFSGSGSGTDFTLTISSLQPEDFATYYCQPSFYFPYTFGQGTKVEIRR , report ND50, inhibition of IL-1-induced IL-8 release from MRC-5 cells.
~30 nM
